assay-target: Aurora-C (Homo sapiens, UniProt Q9UQB9)
Construct: made in house; host or cells: transiently transfected HEK293 cells
Sequence (Q9UQB9 whole entry): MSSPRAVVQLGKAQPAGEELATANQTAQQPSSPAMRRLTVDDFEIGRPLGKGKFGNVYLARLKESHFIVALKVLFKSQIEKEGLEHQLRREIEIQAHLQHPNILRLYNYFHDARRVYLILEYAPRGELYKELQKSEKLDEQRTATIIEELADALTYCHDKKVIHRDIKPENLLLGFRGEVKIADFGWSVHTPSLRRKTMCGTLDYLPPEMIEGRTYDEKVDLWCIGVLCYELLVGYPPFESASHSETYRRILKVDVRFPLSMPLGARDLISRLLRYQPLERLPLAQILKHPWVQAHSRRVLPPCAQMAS
measurement-protocol: Aurora-C kinase assay
Assay type: biochemical
condition-label: 3 μM ATP, 22° C., 90 min
metric-name: IC50 (nM)

>>> measured("COc1ccc(S(=O)(=O)N=S(C)c2ccc(Nc3ncc(Br)c(N[C@H](C)C(C)(C)O)n3)cc2)cc1 (mixture of isomers) [Example 12]")
480

a = Cc1ccc(S(=O)(=O)N=S(C)c2ccc(Nc3ncc(Br)c(NC4CC4)n3)cc2)cc1 (racemic) [Example 3]
b = C[C@@H](Nc1nc(Nc2ccc(S(C)=NS(=O)(=O)C(C)(C)C)cc2)ncc1Br)C(C)(C)O (mixture of isomers) [Example 22]
c = C[C@@H](Nc1nc(Nc2ccc(S(C)=NS(=O)(=O)Cc3ccccc3)cc2)ncc1Br)C(C)(C)O (mixture of isomers) [Example 13]
d = C[C@@H](Nc1nc(Nc2ccc(S(C)=NS(=O)(=O)c3ccc(OC(F)(F)F)cc3)cc2)ncc1Br)C(C)(C)O (mixture of isomers) [Example 16]
e = Cc1ccc(S(=O)(=O)N=S(C)c2ccc(Nc3nccc(NC(C)C)n3)cc2)cc1 (racemic) [Example 5]
## Task Output the entries ranked by IC50 from maximum down to minimum. Would you mind listing the labels in the order asked for?
## Result e, d, c, b, a

* * *

pIC50: −log10 of the molar value.
This section lists pIC50 readings for KDR (VEGFR2) (Homo sapiens, UniProt P35968).
metric-name: pIC50

Reference set, count: 4
>>> measured("Cc1ccc(S(=O)(=O)N=S(C)c2ccc(Nc3nccc(NC(C)C)n3)cc2)cc1 (racemic) [Example 5]")
6.12
>>> measured("C[C@@H](Nc1nc(Nc2ccc(S(C)=NS(=O)(=O)c3cnccc3Cl)cc2)ncc1Br)C(C)(C)O (mixture of isomers) [Example 11]")
7.36
>>> measured("C[C@@H](Nc1nc(Nc2ccc(S(C)=NS(=O)(=O)C(C)(C)C)cc2)ncc1Br)C(C)(C)O (mixture of isomers) [Example 22]")
7.36
>>> measured("Cc1ccc(S(=O)(=O)N=S(C)c2ccc(Nc3ncc(Br)c(Nc4ccccc4)n3)cc2)cc1 (racemic) [Example 6]")
6.92

A = Cc1ccc(S(=O)(=O)N=S(C)c2ccc(Nc3ncc(Br)c(NCCO)n3)cc2)cc1 (racemic) [Example 7]
B = C[C@@H](Nc1nc(Nc2ccc(S(C)=NS(=O)(=O)c3ccc(OC(F)(F)F)cc3)cc2)ncc1Br)C(C)(C)O (mixture of isomers) [Example 16]
C = Cc1ccc(S(=O)(=O)N=S(C)c2ccc(Nc3ncc(Br)c(N[C@H](C)CO)n3)cc2)cc1 (mixture of isomers) [Example 8]
D = Cc1ccc(S(=O)(=O)N=S(C)c2ccc(Nc3ncc(Br)c(NC4CC4)n3)cc2)cc1 (racemic) [Example 3]
## Task Output the entries ranked by pIC50 from maximum down to minimum. Would you mind listing the labels in the order asked for?
## Result D, C, A, B

* * *

assay-target: CDK2/CycE (Homo sapiens)
Construct: GST
measurement-protocol: CDK2/CycE kinase assay
condition-label: 0.5 μM ATP, histone IIIS, 22° C., 10 min
metric-name: IC50 (nM)

Reference set, count: 8
>>> measured("C[C@@H](Nc1nc(Nc2ccc(S(C)=NS(=O)(=O)C(C)(C)C)cc2)ncc1Br)C(C)(C)O (mixture of isomers) [Example 22]")
22
>>> measured("C[C@@H](Nc1nc(Nc2ccc(S(C)=NS(=O)(=O)c3ccc(OC(F)(F)F)cc3)cc2)ncc1Br)C(C)(C)O (mixture of isomers) [Example 16]")
72
>>> measured("C[C@@H](Nc1nc(Nc2ccc(S(C)=NS(=O)(=O)c3cnccc3Cl)cc2)ncc1Br)C(C)(C)O (mixture of isomers) [Example 11]")
14
>>> measured("Cc1ccc(S(=O)(=O)N=S(C)c2ccc(Nc3ncc(Br)c(N[C@H](C)C(C)(C)O)n3)cc2)cc1 (mixture of isomers) [Example 9]")
28
>>> measured("C[C@@H](Nc1nc(Nc2ccc(S(C)=NS(=O)(=O)C(F)(F)F)cc2)ncc1Br)C(C)(C)O (mixture of isomers) [Example 14]")
39
>>> measured("COc1ccc(S(=O)(=O)N=S(C)c2ccc(Nc3ncc(Br)c(N[C@H](C)C(C)(C)O)n3)cc2)cc1 (mixture of isomers) [Example 12]")
39
>>> measured("Cc1ccc(S(=O)(=O)N=S(C)c2ccc(Nc3ncc(Br)c(N[C@H](C)CO)n3)cc2)cc1 (mixture of isomers) [Example 8]")
99
>>> measured("CCS(=O)(=O)N=S(C)c1ccc(Nc2ncc(Br)c(N[C@H](C)C(C)(C)O)n2)cc1 (mixture of isomers) [Example 20]")
10

a = C[C@@H](Nc1nc(Nc2ccc(S(C)=NS(C)(=O)=O)cc2)ncc1Br)C(C)(C)O (mixture of isomers) [Example 18]
b = Cc1ccc(S(=O)(=O)N=S(C)c2ccc(Nc3ncc(Br)c(NC(C)C)n3)cc2)cc1 (racemic) [Example 1]
## Task Higher IC50 between a and b ? Reply briefly: the label of your chosen item.
## Result b
